assay: pKa by potentiometric titration; settings: ionic strength adjusted water (0.15 M KCl), pKa, potentiometric titration, Sirius T3, 0.15 M KCl
Listed here are molecules together with their documented pKa.

[[record]]
molecule = "O=S(=O)(NC1(CCc2ccccc2)CSC1)c1ccccc1 [Compound 19]"
measured_property = "pKa"
result = "> 12"


Then there is this molecule:
Look up and report measured pKa for this entry: CC(=O)NC1(CCc2ccccc2)CS(=O)(=O)C1 [Compound 14]
> 12

###

assay: Parallel artificial membrane permeability assay; settings: Corning Gentest pre-coated PAMPA plate, HPLC-UV
Listed here are molecules together with their documented PAMPA % retention (membrane retention).
Give a bare numeral; the unit % is implied.

[[record]]
smiles_record = "CN(C)S(=O)(=O)Nc1cc(-c2ccccc2)on1"
result_number = 0.131

[[record]]
smiles_record = "CN(C)S(=O)(=O)NC1(CCc2ccccc2)CSC1"
result_number = 0.373

[[record]]
smiles_record = "CN(C)S(=O)(=O)NC1(CCc2ccccc2)CS(=O)(=O)C1"
result_number = 0.105


Look up and report measured PAMPA % retention (membrane retention) for this entry: O=S(=O)(NC1(CCc2ccccc2)COC1)c1ccccc1
0.260

###

assay: potentiometric titration; details: not told
Measured property: log partition n-octanol / aqueous buffer pH 7.4 (log10 concentration ratio)
Give a bare numeral; the unit log10 concentration ratio is implied.

# annotated cases, reported log partition n-octanol / aqueous buffer pH 7.4 shown
[[record]]
compound = "CC1(NS(=O)(=O)CCc2ccccc2)COC1 [Compound 13]"
result_number = 1.58

[[record]]
compound = "O=S(=O)(Nc1cn(-c2ccccc2)nn1)c1ccccc1 [Compound 31]"
result_number = 1.06

[[record]]
compound = "CS(=O)(=O)NC1(CCc2ccccc2)CS(=O)(=O)C1 [Compound 24]"
result_number = 1.03

[[record]]
compound = "CN(C)S(=O)(=O)Nc1cc(-c2ccccc2)on1 [Compound 29]"
result_number = 0.42

[[record]]
compound = "CS(=O)(=O)NC1(CCc2ccccc2)CS(=O)C1 (stereo not shown)"
result_number = 0.87


Look up and report measured log partition n-octanol / aqueous buffer pH 7.4 for this entry: CN(C)S(=O)(=O)Nc1cn(-c2ccccc2)nn1 [Compound 32]
0.69

###

assay: pKa by potentiometric titration; conditions: potentiometric titration, Sirius T3, 0.15 M KCl
Measured property: pKa
Reply with just the number.

# annotated cases, reported pKa shown
[[record]]
compound = "CN(C)S(=O)(=O)Nc1cc(-c2ccccc2)on1 [Compound 29]"
result_number = 5.62

[[record]]
compound = "CN(C)S(=O)(=O)Nc1cn(-c2ccccc2)nn1 [Compound 32]"
result_number = 6.42

[[record]]
compound = "CN(C)S(=O)(=O)N[C@]1(CCc2ccccc2)C[S@+]([O-])C1 [Compound 23]"
result_number = 10.33


Look up and report measured pKa for this entry: CS(=O)(=O)N[C@]1(CCc2ccccc2)C[S@+]([O-])C1 [Compound 21]
9.87

###

experiment: potentiometric titration; settings: not told
Measured property: log partition n-octanol / water (0.15 M KCl) (log10 concentration ratio)
Give a bare numeral; the unit log10 concentration ratio is implied.

# annotated cases, reported log partition n-octanol / water (0.15 M KCl) shown
[[record]]
compound = "CN(C)S(=O)(=O)Nc1cc(-c2ccccc2)on1 [Compound 29]"
measure_unit = "log10 concentration ratio"
result_number = 0.85

[[record]]
compound = "CS(=O)(=O)NC1(CCc2ccccc2)CS(=O)(=O)C1 [Compound 24]"
measure_unit = "log10 concentration ratio"
result_number = 1.03

[[record]]
compound = "O=S(=O)(Nc1cn(-c2ccccc2)nn1)c1ccccc1 [Compound 31]"
measure_unit = "log10 concentration ratio"
result_number = 2.55


Look up and report measured log partition n-octanol / water (0.15 M KCl) for this entry: CC1(NS(=O)(=O)CCc2ccccc2)COC1 [Compound 13]
1.58

Look up and report measured log partition n-octanol / water (0.15 M KCl) for this entry: CS(=O)(=O)Nc1cn(-c2ccccc2)nn1 [Compound 30]
1.16

Look up and report measured log partition n-octanol / water (0.15 M KCl) for this entry: O=S(=O)(Nc1cc(-c2ccccc2)on1)c1ccccc1 [Compound 28]
1.76
